# Recorded Conditions: PAMPA
Test Readout: PAMPA_R3

- Compound: "CC[C@@H](C)[C@H]1NC(=O)[C@H](CC(C)C)N(C)C(=O)[C@H]2CCCN2C(=O)[C@H](CC(C)C)NC(=O)[C@H](Cc2ccccc2)N(C)C(=O)CN(C)C(=O)[C@@H](C(C)C)NC(=O)[C@H](C)NC(=O)[C@H]2CCCN2C(=O)[C@@H]2CCCN2C1=O (single isomer, unassigned) [Design D10.58.p2]"
  Obs Value: "2.44E-07"
- Compound: "CC[C@H](C)[C@@H]1NC(=O)[C@@H](CC(C)C)NC(=O)[C@H](CC(C)C)N(C)C(=O)[C@H](Cc2ccccc2)NC(=O)CN(C)C(=O)[C@@H]2CCCN2C(=O)[C@H](C(C)C)NC(=O)[C@H](Cc2ccccc2)N(C)C(=O)[C@H]2CCCN2C(=O)[C@H](CC(C)C)NC1=O (single isomer, unassigned) [Design D10.1.p1]"
  Obs Value: "3.42E-06"

###

# System: Caco-2 cells
# Procedure Summary: Caco-2 permeability assay (apical to basolateral)
# Assay type: in vitro ADME, human
# Recorded Conditions: Caco-2
Where a SMILES comes first, the peptide text is derived from it. [ ]: non-standard residue; d: D form. dNMeL = CN[C@H](CC(C)C)C(=O)O; NMeA = CN[C@@H](C)C(=O)O; dNMeA = CN[C@H](C)C(=O)O

- Molecule: "CC[C@@H](C)[C@H]1NC(=O)[C@@H](CC(C)C)N(C)C(=O)[C@@H]2CCCN2C(=O)[C@@H]([C@H](C)CC)NC(=O)[C@@H](CC(C)C)NC(=O)[C@@H](CC(C)C)N(C)C(=O)[C@@H]2CCCN2C(=O)[C@@H](C(C)C)NC1=O [Design D8.8, PRO *DLEU DLEU DILE PRO *DLEU DILE DVAL] (cyclo(P[dNMeL][dI][dV]P[dNMeL][dL][dI]))"
  Caco_R3: 24.11
- Molecule: "CC[C@H](C)[C@@H]1NC(=O)[C@@H](C(C)C)NC(=O)[C@@H](CC(C)C)N(C)C(=O)[C@H]2CCCN2C(=O)[C@@H](CC(C)C)NC(=O)[C@@H](CC(C)C)N(C)C(=O)[C@H](CC(C)C)NC(=O)[C@H]2CCCN2C(=O)[C@H](C)N(C)C(=O)[C@H]2CCCN2C1=O [Design D10.41] (cyclo(I[dP][NMeA][dP]L[dNMeL][dL][dP][dNMeL][dV]))"
  Caco_R3: 10.34
- Molecule: "CC[C@H](C)[C@@H]1NC(=O)[C@@H](CC(C)C)NC(=O)[C@@H](C)N(C)C(=O)[C@H](Cc2ccccc2)NC(=O)[C@@H](CC(C)C)NC(=O)[C@@H](C)N(C)C(=O)[C@@H]2CCCN2C(=O)[C@H](C(C)C)NC(=O)[C@H]2CCCN2C(=O)[C@@H]2CCCN2C1=O [Design D10.31] (cyclo(F[dNMeA][dL]IP[dP]VP[dNMeA][dL]))"
  Caco_R3: 3.02

###

# Procedure Summary: Pharmacokinetics and oral bioavailability of D11.2 in male SD rats (IV, PO, SQ)
# Type: in vivo
# Recorded Conditions: male, Sprague Dawley, rat, plasma, iv, 1 mg/kg, IV 1 mg/kg, individual rats R1, R2, R3
Where a SMILES comes first, the peptide text is derived from it. [ ]: non-standard residue; d: D form. NMeL = CN[C@@H](CC(C)C)C(=O)O; Sar = CNCC(=O)O

- Compound: "CC[C@@H](C)[C@H]1NC(=O)[C@@H]2CCCN2C(=O)[C@@H]([C@H](C)CC)NC(=O)CN(C)C(=O)[C@H](CC(C)C)NC(=O)[C@@H](Cc2ccccc2)NC(=O)[C@H](CC(C)C)N(C)C(=O)[C@H]2CCCN2C(=O)[C@@H](CC(C)C)NC(=O)[C@H](CC(C)C)NC(=O)[C@H]2CCCN2C1=O [Design D11.2] (cyclo(L[Sar][dI]P[dI][dP]L[dL][dP][NMeL][dF]))"
  AUC(0-inf) / ng·h/mL: 674

###

# Recorded Conditions: PAMPA
Where a SMILES comes first, the peptide text is derived from it. [ ]: non-standard residue; d: D form. NMeL = CN[C@@H](CC(C)C)C(=O)O; dNMeA = CN[C@H](C)C(=O)O

- Molecule: "CC(C)C[C@H]1NC(=O)[C@H]2CCCN2C(=O)[C@H](CC(C)C)N(C)C(=O)[C@@H](C)N(C)C(=O)[C@@H](Cc2ccccc2)NC(=O)[C@@H](C(C)C)NC(=O)[C@H]2CCCN2C(=O)[C@@H](CC(C)C)NC1=O [Design D8.19, DPHE *DALA *LEU DPRO DLEU DLEU DPRO DVAL] (cyclo([NMeL][dP][dL][dL][dP][dV][dF][dNMeA]))"
  PAMPA_R1: "3.45E-06"

###

# Recorded Conditions: PAMPA
Where a SMILES comes first, the peptide text is derived from it. [ ]: non-standard residue; d: D form. dNMeF = CN[C@H](Cc1ccccc1)C(=O)O; NMeL = CN[C@@H](CC(C)C)C(=O)O; dNMeL = CN[C@H](CC(C)C)C(=O)O
Test Readout: PAMPA_R3

- Compound: "CC(C)C[C@@H]1C(=O)N(C)[C@H](Cc2ccccc2)C(=O)N(C)[C@@H](CC(C)C)C(=O)N[C@H](C(C)C)C(=O)N[C@H](C)C(=O)N2CCC[C@@H]2C(=O)N2CCC[C@H]2C(=O)N[C@H](C)C(=O)N1C [Design D8.20, PRO DALA *DLEU *DPHE *LEU DVAL DALA DPRO] (cyclo([dA][dNMeL][dNMeF][NMeL][dV][dA][dP]P))"
  Test Readout: "PAMPA_R3"
  Obs Value: "1.46E-06"
- Compound: "CC(C)C[C@@H]1NC(=O)[C@@H](CC(C)C)N(C)C(=O)[C@@H](CC(C)C)N(C)C(=O)[C@@H](CC(C)C)N(C)C(=O)[C@H](CC(C)C)NC(=O)[C@@H]2CCCN2C(=O)[C@H]2CCCN2C(=O)[C@H](Cc2ccccc2)NC1=O [Design D8.7, PHE DPRO PRO LEU *DLEU *DLEU *DLEU LEU] (cyclo(L[dNMeL][dNMeL][dNMeL]LF[dP]P))"
  Test Readout: "PAMPA_R3"
  Obs Value: "8.74E-07"
- Compound: "CC[C@@H](C)[C@H]1NC(=O)[C@@H](CC(C)C)NC(=O)[C@@H](CC(C)C)N(C)C(=O)[C@@H]2CCCN2C(=O)[C@@H](C(C)C)NC(=O)[C@H](CC(C)C)NC(=O)[C@@H](CC(C)C)N(C)C(=O)[C@@H]2CCCN2C1=O [Design D8.3.p1, DLEU DVAL PRO *DLEU DLEU DILE PRO *DLEU] (cyclo(L[dV]P[dNMeL][dL][dI]P[dNMeL]))"
  Test Readout: "PAMPA_R3"
  Obs Value: "3.90E-06"

###

# Recorded Conditions: PAMPA
Where a SMILES comes first, the peptide text is derived from it. [ ]: non-standard residue; d: D form. dNMeL = CN[C@H](CC(C)C)C(=O)O; dNMeA = CN[C@H](C)C(=O)O
Test Readout: PAMPA_R1

- Compound: "CC(C)C[C@H]1NC(=O)[C@@H]2CCCN2C(=O)[C@H]2CCCN2C(=O)[C@H](C(C)C)NC(=O)[C@@H](CC(C)C)NC(=O)[C@@H]2CCCN2C(=O)[C@H]2CCCN2C(=O)[C@H](C(C)C)NC1=O (single isomer, unassigned) [Design D8.12.p2, DLEU VAL DPRO PRO DLEU VAL DPRO PRO]"
  Obs Value: "1.77E-07"
- Compound: "CC[C@@H](C)[C@H]1NC(=O)[C@H](Cc2ccccc2)NC(=O)[C@@H](CC(C)C)N(C)C(=O)[C@@H]2CCCN2C(=O)[C@@H](C(C)C)NC(=O)[C@@H](C)N(C)C(=O)[C@H]2CCCN2C(=O)[C@@H](CC(C)C)NC(=O)[C@H](CC(C)C)NC(=O)[C@@H]2CCCN2C1=O [Design D10.30] (cyclo(F[dI]PL[dL][dP][dNMeA][dV]P[dNMeL]))"
  Obs Value: "5.23E-06"

###

# Procedure Summary: Caco-2 permeability assay (apical to basolateral)
# Type: in vitro ADME, human
# Recorded Conditions: Caco-2, average of 3 replicates; read-out: Caco_Papp_Average
Where a SMILES comes first, the peptide text is derived from it. [ ]: non-standard residue; d: D form. NMeF = CN[C@@H](Cc1ccccc1)C(=O)O; NMeL = CN[C@@H](CC(C)C)C(=O)O; NMeV = CN[C@H](C(=O)O)C(C)C
Test Readout: Papp A→B (×10⁻⁶ cm/s)

- Molecule: "CC(C)C[C@H]1C(=O)N2CCC[C@@H]2C(=O)N(C)[C@@H](C(C)C)C(=O)N[C@@H](C(C)C)C(=O)N2CCC[C@H]2C(=O)N2CCC[C@@H]2C(=O)N[C@@H](C)C(=O)N[C@H](C(C)C)C(=O)N(C)[C@@H](CC(C)C)C(=O)N[C@@H](C)C(=O)N1C [Design D10.5] (cyclo(A[NMeL][dP][NMeV]VP[dP]A[dV][NMeL]))"
  Obs Value: 0.497
- Molecule: "CC(C)C[C@@H]1NC(=O)[C@@H](C(C)C)NC(=O)[C@H](Cc2ccccc2)N(C)C(=O)[C@H]2CCCN2C(=O)[C@H]2CCCN2C(=O)[C@@H](C)NC(=O)[C@H](Cc2ccccc2)N(C)C(=O)[C@H]2CCCN2C(=O)[C@@H](C(C)C)NC(=O)[C@@H]2CCCN2C1=O [Design D10.4] (cyclo(LP[dV][dP][NMeF][dA][dP][dP][NMeF][dV]))"
  Obs Value: 0.627
- Molecule: "CC[C@H](C)[C@@H]1NC(=O)[C@@H](C(C)C)NC(=O)[C@@H]2CCCN2C(=O)[C@@H](CC(C)C)N(C)C(=O)[C@@H](C(C)C)NC(=O)[C@H](CC(C)C)N(C)C(=O)[C@H]2CCCN2C(=O)[C@@H](C)NC(=O)[C@H](Cc2ccccc2)N(C)C(=O)[C@H]2CCCN2C1=O (single isomer, unassigned) [Design D10.3.p2]"
  Obs Value: 4.43
- Molecule: "CC[C@@H](C)[C@H]1NC(=O)[C@H](CC(C)C)NC(=O)[C@@H](CC(C)C)NC(=O)[C@H](C(C)C)NC(=O)[C@@H](Cc2ccccc2)N(C)C(=O)[C@@H]2CCCN2C(=O)[C@@H](CC(C)C)NC(=O)[C@H](CC(C)C)NC(=O)[C@H]2CCCN2C1=O (single isomer, unassigned) [Design D9.4.p1]"
  Obs Value: 3.76

Origin of measurements: paper PMC9490236
